Each recorded value in this set is attributed to PubChem BioAssay AID485317.

molecular target: FAD-linked sulfhydryl oxidase ALR (Homo sapiens); experiment: ALR-catalysed DTT oxidation blockers – biochemical, H2O2 detection, HRP-luminol luminescence, single point, primary screen (AID 485317); details: purified ALR, concentration not given here
Among all 290,000 compounds or so, about 11,000 (3.8%) were called active.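 The calls were made as follows: active = mean replicate inhibition above about 79%, with every replicate also reaching it (limit read from the data); inconclusive = only one of the two criteria met; inactive = mean below limit and not every replicate reaching it.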 The sample holds actives, similar compounds and a random draw of the others, so the mix is not that of the screen.
Write down the outcome that applies. Available outcomes: active, inactive

Examples from the recorded data:
> print(dat)
                         chemical.structure  answer.label
1  COc1cc(/C=C/C(=O)OCC(=O)c2ccccc2)cc(OC)c1OC      inactive
2           CC(C)Cn1c(CCC(=O)O)ccc1-c1cccs1        active

Consider the additional compound presented here.
Query: // outcome(item) with item = O=C(NCCc1ccc(C(F)(F)F)cc1)c1ccc2c(c1)OCO2
Response: inactive
